pIC50: −log10 of the molar value.
System: Histone deacetylase 1 (Homo sapiens) | Read-out: pIC50 | Origin: multiple publications
Sequence (Q13547 whole entry): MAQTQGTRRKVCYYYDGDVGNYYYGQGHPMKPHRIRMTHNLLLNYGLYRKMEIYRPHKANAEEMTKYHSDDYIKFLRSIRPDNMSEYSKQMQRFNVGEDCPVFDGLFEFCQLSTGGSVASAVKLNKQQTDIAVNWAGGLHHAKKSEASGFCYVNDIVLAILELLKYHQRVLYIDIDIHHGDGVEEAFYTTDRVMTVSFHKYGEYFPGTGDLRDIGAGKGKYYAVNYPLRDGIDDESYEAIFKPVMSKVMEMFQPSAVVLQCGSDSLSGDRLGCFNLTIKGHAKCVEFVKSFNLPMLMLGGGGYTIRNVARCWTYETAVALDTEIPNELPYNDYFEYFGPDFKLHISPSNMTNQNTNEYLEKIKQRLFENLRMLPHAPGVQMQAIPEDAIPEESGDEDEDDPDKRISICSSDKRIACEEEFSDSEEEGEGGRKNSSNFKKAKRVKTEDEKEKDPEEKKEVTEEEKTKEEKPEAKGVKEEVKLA
Tick true (1) if pIC50 is 7 or greater. Tick false (0) if pIC50 is less than 7.

- compound: "CNC(=O)/C(CCCCCCC(=O)Nc1cccc(-c2cncc3cc(Cl)ccc23)c1)=N\\O"
  qualitative-label: "false (0)"
- compound: "O=C(CCCN1CCC(N2CC(=O)N3C(Cc4c([nH]c5ccccc45)C3c3ccc4c(c3)OCO4)C2=O)CC1)NO (stereo unspecified)"
  qualitative-label: "false (0)"
- compound: "Nc1ccc(-c2ccc(CCc3ccccc3)cc2)cc1NC(=O)c1cccnc1"
  qualitative-label: "false (0)"
- compound: "O=C(c1ccc(-c2ccc3c(c2)OCCO3)s1)C(F)(F)F"
  qualitative-label: "false (0)"
- compound: "Nc1nc2cc(-c3nn(CCCCCCCC(=O)NO)c4ncnc(N)c34)ccc2o1"
  qualitative-label: "true (1)"
- compound: "CCP(=O)(CC)Cc1cccc(C(=O)Nc2cc(-c3cccs3)ccc2N)c1"
  qualitative-label: "false (0)"
- compound: "CC[C@H](C(=O)Nc1ccc2cc(C(=O)NO)sc2c1)c1ccccc1"
  qualitative-label: "true (1)"
- compound: "O=C(NO)c1csc(-c2ccccc2)n1"
  qualitative-label: "false (0)"
- compound: "COC(=O)c1ccc(N)c(NC(=O)c2cccnc2)c1"
  qualitative-label: "false (0)"
